Target: T1, human ACTH 1-39 (human)
T1 peptide: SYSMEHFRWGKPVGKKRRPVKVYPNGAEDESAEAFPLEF
Assay: cell-based or functional assay
RECORDED_METRIC: MC4R IC50 (nM)

[
  {
    "BINDER": "Ab1 (antibody, human IgG1, kappa, N297A, V domains shown, rabbit/human chimeric antibody, made in HEK-293) VH: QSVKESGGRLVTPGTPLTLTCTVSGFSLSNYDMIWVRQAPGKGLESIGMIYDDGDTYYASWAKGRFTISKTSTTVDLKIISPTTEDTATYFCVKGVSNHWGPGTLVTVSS VL: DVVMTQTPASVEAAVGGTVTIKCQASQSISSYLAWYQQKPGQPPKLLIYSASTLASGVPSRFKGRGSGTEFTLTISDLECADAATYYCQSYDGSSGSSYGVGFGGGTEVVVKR",
    "RECORDED_METRIC": "MC4R IC50",
    "OBSERVED_VALUE": 56.4
  },
  {
    "BINDER": "Ab2 (antibody, human IgG1, kappa, N297A, V domains shown, rabbit/human chimeric antibody, made in HEK-293) VH: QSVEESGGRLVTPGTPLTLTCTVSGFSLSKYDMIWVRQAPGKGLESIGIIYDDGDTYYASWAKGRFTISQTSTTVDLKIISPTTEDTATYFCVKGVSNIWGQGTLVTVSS VL: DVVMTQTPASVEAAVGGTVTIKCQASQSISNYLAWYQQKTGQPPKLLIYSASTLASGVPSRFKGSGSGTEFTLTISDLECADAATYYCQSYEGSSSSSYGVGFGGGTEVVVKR",
    "RECORDED_METRIC": "MC4R IC50",
    "OBSERVED_VALUE": 54.5
  },
  {
    "BINDER": "Ab4 (antibody, human IgG1, kappa, N297A, V domains shown, rabbit/human chimeric antibody, made in HEK-293) VH: QSVEESGGRLVTPGTPLTLTYTVSGFSLSKHDMIWVRQAPGKGLESIGIIYDDGDTYYANWAKGRFTISKTSTTVDLKIISPTTEDTATYFCVKGVSNIWGPGTLVTVSS VL: DVVMTQTPASVEAAVGGTVTIKCRASQSISVYLAWYQQKAGQPPKLLIYQASKLASGVPSRFKGSGSGTEFTLTISDLECADAATYYCQSYDGSSSSSYGVGFGGGTEVVVKR",
    "RECORDED_METRIC": "MC4R IC50",
    "OBSERVED_VALUE": 65.8
  },
  {
    "BINDER": "Ab5 (antibody, human IgG1, kappa, N297A, V domains shown, rabbit/human chimeric antibody, made in HEK-293) VH: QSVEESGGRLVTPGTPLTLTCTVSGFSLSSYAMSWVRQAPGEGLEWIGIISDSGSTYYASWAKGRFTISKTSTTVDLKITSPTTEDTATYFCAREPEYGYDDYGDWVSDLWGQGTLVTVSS VL: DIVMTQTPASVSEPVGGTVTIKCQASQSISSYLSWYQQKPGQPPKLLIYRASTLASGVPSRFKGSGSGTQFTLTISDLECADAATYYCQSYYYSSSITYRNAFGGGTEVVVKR",
    "RECORDED_METRIC": "MC4R IC50",
    "OBSERVED_VALUE": 43.4
  },
  {
    "BINDER": "Ab11 (antibody, human IgG1, kappa, N297A, V domains shown, rabbit/human chimeric antibody, made in HEK-293) VH: QSLEESGGRLVTPGTSLTLTCTASGFSLSAYDILWVRQAPGKGLESIGMMYDDGDTYYATWAKGRFIISRTSTTMDLKIISPTTEDTATYFCVKGVSNIWGQGTLVTVSS VL: DIVMTQIPASVEAAVGGTVTIKCQASQSIDSSLAWYQQKPGQPPKLLIYSASTLASGVPSRFKGSGSGTEFTLTIGDLECADAATYYCQSYDGSSSSYYGIGFGGGTEVVVKR",
    "RECORDED_METRIC": "MC4R IC50",
    "OBSERVED_VALUE": 49.4
  },
  {
    "BINDER": "Ab7 (antibody, human IgG1, kappa, N297A, V domains shown, rabbit/human chimeric antibody, made in HEK-293) VH: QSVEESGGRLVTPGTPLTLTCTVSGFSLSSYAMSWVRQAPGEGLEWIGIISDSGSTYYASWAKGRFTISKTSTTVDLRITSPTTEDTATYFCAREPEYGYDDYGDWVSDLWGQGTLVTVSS VL: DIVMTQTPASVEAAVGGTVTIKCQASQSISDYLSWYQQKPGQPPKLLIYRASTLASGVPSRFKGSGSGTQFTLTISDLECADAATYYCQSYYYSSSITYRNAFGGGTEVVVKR",
    "RECORDED_METRIC": "MC4R IC50",
    "OBSERVED_VALUE": 49.7
  }
]
